# System: HepG2 cancer cells
# assay-name: Anticancer activity, cell viability by CCK-8, HepG2
# Assay type: cell-based
# cond: HepG2, 10 μM, 72 hours
measured-attribute: Cell viability (% of Con. 10 μM) HepG2

# example entries with known answers
compound	Cell viability (% of Con. 10 μM) HepG2
CP(C)(=O)c1ccccc1Nc1nc(Nc2ccc3[nH]ccc3c2)ncc1Cl	20 % of Con.
CP(C)(=O)c1ccccc1Nc1nc(Nc2ccc3[nH]c(C(F)(F)F)nc3c2)ncc1Cl	28 % of Con.
CC1c2cc(Nc3ncc(Cl)c(Nc4ccccc4P(C)(C)=O)n3)ccc2CCN1C(=O)C(F)(F)F (centres unmarked)	17 % of Con.
CP(C)(=O)c1ccccc1Nc1nc(Nc2ccc3[nH]nc(-c4ccc(O)cc4)c3c2)ncc1Cl	67 % of Con.

*Q* Could you share which Cell viability (% of Con. 10 μM) HepG2 value was measured for CP(C)(=O)c1ccccc1Nc1nc(Nc2ccc3[nH]nc(-c4cccc([N+](=O)[O-])c4)c3c2)ncc1Cl ?
*A* 21 % of Con.

*Q* Could you share which Cell viability (% of Con. 10 μM) HepG2 value was measured for COc1ccc(-c2n[nH]c3ccc(Nc4ncc(Cl)c(Nc5ccccc5P(C)(C)=O)n4)cc23)cc1F ?
*A* 53 % of Con.

*Q* Could you share which Cell viability (% of Con. 10 μM) HepG2 value was measured for CP(C)(=O)c1ccccc1Nc1nc(Nc2ccc3[nH]nc(-c4ccc(F)c(Cl)c4)c3c2)ncc1Cl ?
*A* 63 % of Con.
